kdis values, listed per item
test system: recombinant HCMV pentamer (strain VR1814) consisting of gH, gL, UL128, UL130 and UL131A; assay: Biolayer interferometry (Octet RED) KD determination; assay type: binding, Human cytomegalovirus; settings: dissociation 3 minutes in PBS
Give your result in s⁻¹ as a bare value.

QUERY: Entry 13G1: anti-HCMV gH/gL monoclonal antibody, fusion 3; VH SEQ ID NO:38, VL SEQ ID NO:39; chimeric and fully human IgG1 versions (antibody, V domains shown, IgG1 constant regions, anti-HCMV gH/gL monoclonal antibody, fusion 3; chimeric and fully human IgG1 versions) VH: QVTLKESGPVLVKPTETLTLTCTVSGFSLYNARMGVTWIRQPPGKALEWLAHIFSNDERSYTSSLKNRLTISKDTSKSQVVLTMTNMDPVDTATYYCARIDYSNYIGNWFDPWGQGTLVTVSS VL: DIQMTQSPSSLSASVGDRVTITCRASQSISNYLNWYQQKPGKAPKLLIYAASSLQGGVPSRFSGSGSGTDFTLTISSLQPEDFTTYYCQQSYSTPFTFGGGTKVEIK needs its kdis filled in; supply it.
RESULT: 6.51e-05

Next molecule, kdis to be filled in.
QUERY: Entry 14E1 (antibody, V domains shown) VH: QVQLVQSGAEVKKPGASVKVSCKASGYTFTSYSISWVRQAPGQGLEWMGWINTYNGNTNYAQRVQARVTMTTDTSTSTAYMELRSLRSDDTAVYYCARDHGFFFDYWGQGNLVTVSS VL: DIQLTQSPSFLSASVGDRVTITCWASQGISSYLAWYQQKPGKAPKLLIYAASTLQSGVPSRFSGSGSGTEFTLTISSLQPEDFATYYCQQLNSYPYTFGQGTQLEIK needs its kdis filled in; supply it.
RESULT: 0.00158
